system: Staphylococcus aureus; test: Antibacterial activity against Staphylococcus aureus ATCC 6538 assessed as inhibition of bacterial growth incubated for 16 to 24 hrs by broth microdilution method; format: functional; settings: time 16-24 hrs
ENDPOINT: MBC (µM)
Answer format: numeric, µM implied, no suffix.

# example entries with known answers
INSERT INTO measurements (molecule, measure_unit, meas_value) VALUES
  ('Cc1ccccc1C(c1cc([N+](=O)[O-])ccc1O)N1CCc2cc(Cl)ccc21 (stereo not drawn)', 'µM', 4.95),
  ('Cc1ccccc1C(c1cc([N+](=O)[O-])ccc1O)N1CCc2c(C#N)cccc21 (stereo not drawn)', 'µM', 20.3),
  ('Cc1ccc(C(c2cc([N+](=O)[O-])ccc2O)N2CCc3cc(O)ccc32)cc1 (stereo not drawn)', 'µM', 332),
  ('Cc1ccc(C(c2cc([N+](=O)[O-])ccc2O)N2CCc3c(C#N)cccc32)cc1 (stereo not drawn)', 'µM', 40.5),
  ('O=[N+]([O-])c1ccc(O)c(C(c2ccc(C(F)(F)F)cc2)N2CCc3ccccc32)c1 (stereo not drawn)', 'µM', 2.36);

## Task MBC lookup needed for Cc1ccccc1C(c1cc([N+](=O)[O-])ccc1O)N1CCc2cc([N+](=O)[O-])ccc21 (stereo not drawn) , thanks.
## Result 9.64

## Task MBC lookup needed for Cc1ccc(C(c2cc([N+](=O)[O-])ccc2O)N2CCc3ccccc32)cc1 (stereo not drawn) , thanks.
## Result 43.4

## Task MBC lookup needed for O=[N+]([O-])c1ccc(O)c(C(c2ccc(Cl)cc2)N2CCc3ccccc32)c1 (stereo not drawn) , thanks.
## Result 2.47

## Task MBC lookup needed for Cc1ccc(C(c2cc([N+](=O)[O-])ccc2O)N2CCc3cc([N+](=O)[O-])ccc32)cc1 (stereo not drawn) , thanks.
## Result 77.1

## Task MBC lookup needed for COc1ccc2c(c1)CCN2C(c1ccc(C)cc1)c1cc([N+](=O)[O-])ccc1O (stereo not drawn) , thanks.
## Result 80

## Task MBC lookup needed for Cc1ccccc1C(c1cc([N+](=O)[O-])ccc1O)N1CCc2cc(Br)ccc21 (stereo not drawn) , thanks.
## Result 4.45

The origin of these recorded values is ChEMBL document CHEMBL4837201.
